B1: Hairpin Ribozyme (parent)
chain: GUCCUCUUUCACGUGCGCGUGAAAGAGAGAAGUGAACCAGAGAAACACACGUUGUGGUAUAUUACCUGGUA

Variants of: B1
Experiment: self-cleavage, relative activity (ratio to wild type); higher = more cleavage; co-transcriptional
Consider the following variants; for each one, report its self-cleavage.
When you answer, write just the number.

Value of measured self-cleavage for the entry U14G U52G : 0.507

Value of measured self-cleavage for the entry A30G G57A : 0.0803

Value of measured self-cleavage for the entry U9C U14G : 0.754

Value of measured self-cleavage for the entry G13C G34U : 1.1

Value of measured self-cleavage for the entry A30G C65G : 0.204

Value of measured self-cleavage for the entry C48G G69A : 0.224

Value of measured self-cleavage for the entry U55A U60G : 0.33

Value of measured self-cleavage for the entry C4U C50A : 0.203

Value of measured self-cleavage for the entry A23U A64U : 0.178

Value of measured self-cleavage for the entry U53A G69C : 0.19

Value of measured self-cleavage for the entry G57A : 0.183

Value of measured self-cleavage for the entry C6A U60A : 0.541

Value of measured self-cleavage for the entry C10G U58A : 0.591

Value of measured self-cleavage for the entry U2G A35U : 0.27

Value of measured self-cleavage for the entry A45G A64C : 0.216

Value of measured self-cleavage for the entry A26G G54C : 0.457

Value of measured self-cleavage for the entry G1C G15C : 0.117

Value of measured self-cleavage for the entry A31G C38U : 0.272

Value of measured self-cleavage for the entry A23C C66G : 0.166

Value of measured self-cleavage for the entry G17C G54A : 0.36

Value of measured self-cleavage for the entry G15A U63C : 0.0715

Value of measured self-cleavage for the entry C18G A49C : 0.12

Value of measured self-cleavage for the entry C12G A23C : 0.511

Value of measured self-cleavage for the entry U2A A11U : 0.269

Value of measured self-cleavage for the entry C18U G21C : 0.883

Value of measured self-cleavage for the entry U20A U67A : 0.217

Value of measured self-cleavage for the entry G42C U67A : 0.0793

Value of measured self-cleavage for the entry A30U U60A : 0.346

Value of measured self-cleavage for the entry G27C C46U : 0.106

Value of measured self-cleavage for the entry C3U C18U : 0.487

Value of measured self-cleavage for the entry C18G U60G : 0.483

Value of measured self-cleavage for the entry C3A U58A : 0.637

Value of measured self-cleavage for the entry U2A A35U : 0.174

Value of measured self-cleavage for the entry G57U A59C : 0.188

Value of measured self-cleavage for the entry A26C A30C : 0.25

Value of measured self-cleavage for the entry A11U U33A : 0.0768

Value of measured self-cleavage for the entry C6G A26C : 0.22

Value of measured self-cleavage for the entry C4U A11U : 0.256

Value of measured self-cleavage for the entry G17U A39U : 0.337

Value of measured self-cleavage for the entry A23G A39U : 0.252

Value of measured self-cleavage for the entry A61C G68A : 0.116

Value of measured self-cleavage for the entry U5G A49U : 0.127

Value of measured self-cleavage for the entry C12G A41G : 0.573

Value of measured self-cleavage for the entry A23U G57U : 0.307

Value of measured self-cleavage for the entry U5A C12G : 0.266

Value of measured self-cleavage for the entry A36U A61G : 0.156

Value of measured self-cleavage for the entry U20A A23U : 0.785

Value of measured self-cleavage for the entry A64C C65G : 0.161

Value of measured self-cleavage for the entry A41U A61C : 0.39

Value of measured self-cleavage for the entry C3G A24C : 0.238

Value of measured self-cleavage for the entry U60G G68C : 0.127

Value of measured self-cleavage for the entry A35U U62C : 0.0853

Value of measured self-cleavage for the entry C48U U58C : 0.333

Value of measured self-cleavage for the entry G13C A35U : 0.552

Value of measured self-cleavage for the entry G57U C65G : 0.134

Value of measured self-cleavage for the entry C10G U55A : 0.316

Value of measured self-cleavage for the entry G40A C48G : 0.135

Value of measured self-cleavage for the entry A23C A30C : 0.246

Value of measured self-cleavage for the entry G1U U9A : 0.115

Value of measured self-cleavage for the entry U14C G51A : 0.854

Value of measured self-cleavage for the entry G1U C38A : 0.154

Value of measured self-cleavage for the entry C16U U67G : 0.367

Value of measured self-cleavage for the entry U2A U60G : 0.222

Value of measured self-cleavage for the entry U63G U70G : 0.182

Value of measured self-cleavage for the entry A36U U53C : 0.593

Value of measured self-cleavage for the entry A39C A41C : 0.349

Value of measured self-cleavage for the entry A11G G54C : 0.297

Value of measured self-cleavage for the entry U2A U7C : 0.273

Value of measured self-cleavage for the entry C3A C37G : 0.32

Value of measured self-cleavage for the entry C38A G57C : 0.157

Value of measured self-cleavage for the entry A47C U53G : 0.174

Value of measured self-cleavage for the entry G13U U20A : 0.73

Value of measured self-cleavage for the entry G29A U55A : 0.13

Value of measured self-cleavage for the entry A35U C38G : 0.235

Value of measured self-cleavage for the entry C38G A39U : 0.209

Value of measured self-cleavage for the entry G25U A49G : 0.217

Value of measured self-cleavage for the entry C18G G68U : 0.171

Value of measured self-cleavage for the entry C37G G42A : 0.117

Value of measured self-cleavage for the entry C16A U20A : 0.743

Value of measured self-cleavage for the entry A35C U62G : 0.172

Value of measured self-cleavage for the entry C18A A59G : 0.272

Value of measured self-cleavage for the entry U60A C65G : 0.254

Value of measured self-cleavage for the entry G32A A41U : 0.396

Value of measured self-cleavage for the entry U9A G32U : 0.135

Value of measured self-cleavage for the entry C18A U33A : 0.115

Value of measured self-cleavage for the entry A26U G34U : 1.37

Value of measured self-cleavage for the entry U20A A30G : 0.184

Value of measured self-cleavage for the entry U7A A59C : 0.136

Value of measured self-cleavage for the entry U20C C38A : 0.152

Value of measured self-cleavage for the entry C3A C6A : 0.484

Value of measured self-cleavage for the entry A30C C50U : 0.118

# credit: the RNAGym collection of RNA variant scans (doi:10.7554/elife.80360)
